Target entity: FLAG-tagged human Ang2 (human) (UniProt O15123)
Sequence (O15123 19-496): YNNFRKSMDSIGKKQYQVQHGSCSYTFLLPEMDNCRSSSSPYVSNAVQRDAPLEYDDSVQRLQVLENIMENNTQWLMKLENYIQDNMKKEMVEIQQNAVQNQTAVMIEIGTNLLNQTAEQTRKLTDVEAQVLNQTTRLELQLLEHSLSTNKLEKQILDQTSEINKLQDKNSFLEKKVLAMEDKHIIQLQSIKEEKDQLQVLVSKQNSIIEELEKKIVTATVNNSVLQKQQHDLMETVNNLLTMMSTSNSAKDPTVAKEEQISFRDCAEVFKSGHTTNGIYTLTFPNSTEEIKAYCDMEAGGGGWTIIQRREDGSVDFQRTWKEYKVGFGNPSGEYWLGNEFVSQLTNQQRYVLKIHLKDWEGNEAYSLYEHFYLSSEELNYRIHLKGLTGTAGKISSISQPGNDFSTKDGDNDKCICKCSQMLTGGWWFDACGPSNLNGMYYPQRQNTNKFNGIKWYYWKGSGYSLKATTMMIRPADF
Measurement description: competition ELISA: FLAG-hAng2 binding to coated hTie2-Fc
Metric: log10(IC50) (log10 of the value in nM)

| Binder | log10(IC50) |
| --- | --- |
| VHH 00040 (VHH, not shown: small tags and cut ends) VHH: EVQLVESGGGLVQPGGSLRLSCAASGFTFDDYALGWFRQAPGKEREGVSCIRCSDGSTYYADSVKGRFTISRDNSKNTVYLQMNSLRPEDTAVYYCAASIVPRSKLEPYEYDAWGQGTLVTVSS | 0.81 |
| VHH 00908 (VHH, not shown: small tags and cut ends) VHH: EVQLVESGGGLVQPGGSLRLSCAASGITLDDYAIGWFRQAPGKEREGVSSIRDNGGSTYYADSVKGRFTISSDNSKNTVYLQMNSLRPEDTAVYYCAAVPAGRLRYGEQWYPIYEYDAWGQGTLVTVSS | -1.35 |
| VHH 00930 (VHH, not shown: small tags and cut ends) VHH: EVQLVESGGGLVQPGGSLRLSCAASGFALDYYAIGWFRQAPGKEREGVSCISSSGGITYYADSVKGRFTISRDNSKNTVYLQMNSLRPEDTAVYYCATESGGYIDYDCRGLGYDYWGQGTLVTVSS | -0.72 |
| VHH 00910 (VHH, not shown: small tags and cut ends) VHH: EVQLVESGGGLVQPGGSLRLSCAASGITIDDYAIGWFRQAPGKEREGVSSIRDNGGSTYYADSVKGRFTISSDNSKNTVYLQMNSLRPEDTAVYYCAAVPAGRLRYGEQWYPIYEYDAWGQGTLVTVSS | -1.38 |
| VHH 00051 (VHH, not shown: small tags and cut ends) VHH: EVQLVESGGGLVQPGGSLRLSCAASGFTFDDYALGWFRQAAGKEREGVSCIRCSGGSTYYADSVKGRFTISSDNSKNTVYLQMNSLRPEDTAVYYCAASIVPRSKLEPYEYDAWGQGTLVTVSS | 1.21 |
| VHH 00906 (VHH, not shown: small tags and cut ends) VHH: EVQLVESGGGLVQPGGSLRLSCAASGFTIDDYAIGWFRQAPGKEREGVSSIRDNGGSTYYADSVKGRFTISSDNSKNTVYLQMNSLRPEDTAVYYCAAVPAGRLRYGEQWYPIYEYDAWGQGTLVTVSS | -1.35 |
| VHH 00050 (VHH, not shown: small tags and cut ends) VHH: EVQLVESGGGLVQPGGSLRLSCAASGFTFDDYALGWFRQAPGKEREGVSCIRCSDGSTYYADSVKGRFTISSDNSKNTVYLQMNSLRPEDTAVYYCAASIVPRSKLEPYEYDAWGQGTLVTVSS | 0.78 |
| VHH 00936 (VHH, not shown: small tags and cut ends) VHH: EVQLVESGGGLVQPGGSLRLSCAVSGITLDDYAIGWFRQAPGKEREGVSAIRDNGGSTYYADSVKGRFTISSDNSKNTVYLQMNSLRPEDTAVYYCAAVPAGRLRYGEQWYPIYEYDAWGQGTLVTVSS | -1.35 |
| VHH 00927 (VHH, not shown: small tags and cut ends) VHH: EVQLVESGGGLVQPGGSLRLSCAASGFALDYYAIGWFRQAPGKEREGVSCISSSGGITYYADSVKGRFTISRDNSKNTVYLQMNSLRPEDTAVYYCATDSGGYIDYDCRGLGYDYWGQGTLVTVSS | -0.66 |
| VHH 00911 (VHH, not shown: small tags and cut ends) VHH: EVQLVESGGGLVQPGGSLRLSCAASGLTLDDYAIGWFRQAPGKEREGVSSIRDNGGSTYYADSVKGRFTISSDNSKNTVYLQMNSLRPEDTAVYYCAAVPAGRLRFGEQWYPIYEYDAWGQGTLVTVSS | -1.23 |
| VHH 00898 (VHH, not shown: small tags and cut ends) VHH: EVQLVESGGGLVQAGGSLRLSCAASGFTLDDYAIGWFRQAPGKEREGVSAIRDNDGSTYYADSVKGRFTISSDNDKNTVYLQMNSLKPEDTAVYYCAAVPAGRLRFGEQWYPLYEYDAWGQGTLVTVSS | 0.08 |
| VHH 00045 (VHH, not shown: small tags and cut ends) VHH: EVQLVESGGGLVQPGGSLRLSCAASGFALDYYAIGWFRQAPGKEREGVSCISSSDGITYYADSVKGRFTISRDNSKNTVYLQMNSLRPEDTAVYYCATDSGGYIDYDCMGLGYDYWGQGTLVTVSS | -0.92 |
| VHH 00937 (VHH, not shown: small tags and cut ends) VHH: EVQLVESGGGLVQPGGSLRLSCAVSGITLDDYAIGWFRQAPGKEREGVSAIRESGGSTYYADSVKGRFTISSDNSKNTVYLQMNSLRPEDTAVYYCAAVPAGRLRYGEQWYPIYEYDAWGQGTLVTVSS | -1.27 |
| VHH 00956 (VHH, not shown: small tags and cut ends) VHH: EVQLVESGGGLVQPGGSLRLSCAASGFTLDDYAIGWFRQAPGKEREGVSAIRSSGGSTYYADSVKGRFTISSDNSKNTVYLQMNSLRPEDTAVYYCAAVPAGRLRFGEQWYPLYEYDAWGQGTLVTVSS | 0.11 |
| VHH 00905 (VHH, not shown: small tags and cut ends) VHH: EVQLVESGGGLVQPGGSLRLSCAASGFTIDDYAIGWFRQAPGKEREGVSSIRDNGGSTYYADSVKGRFTISSDNSKNTVYLQMNSLRPEDTAVYYCAAVPAGRLRFGEQWYPIYEYDAWGQGTLVTVSS | -1.10 |
